molecular target: Tau; test: rat primary cortical neurons, FLIPR, 25 uM ASO
Bases are written 5' to 3'; sugars and linkages follow in the same order, as letters with counts (s phosphorothioate, o phosphodiester; PS: all linkages phosphorothioate). The collection does not say whether C is 5-methylated. l = locked nucleic acid (LNA); d = 2'-deoxy (DNA)
result type: calcium oscillation score

Entry TCTCAAAAATCAACGCC (sugars l4 d10 l3, PS) under Tau had calcium oscillation score of 94.5 % of control

Entry ATTAACCAATTAACCGAACT (sugars l3 d14 l3, PS) under Tau had calcium oscillation score of 45.2 % of control

Entry ATTTAATTTATTTTTTACTT (sugars l4 d12 l4, PS) under Tau had calcium oscillation score of 50.1 % of control

Entry GATACCCTTCCTCAGA (sugars l2 d12 l2, PS) under Tau had calcium oscillation score of 30.9 % of control

Entry ACTTTATCCCTCCATGA (sugars l3 d11 l3, PS) under Tau had calcium oscillation score of 39.6 % of control

Entry AAATCCTTAATTTAACCACA (sugars l4 d12 l4, PS) under Tau had calcium oscillation score of 63.1 % of control

Entry TTATTTCCAAATTCACTTTT (sugars l5 d10 l5, PS) under Tau had calcium oscillation score of ≥ 200 % of control

Entry TCTCTCTAGACATCTCA (sugars l2 d12 l3, PS) under Tau had calcium oscillation score of 68.4 % of control

Entry ATCGCTTCCAGTCC (sugars l3 d8 l3, PS) under Tau had calcium oscillation score of 29.9 % of control

Entry ATTTGGAAAGATGAAATTTG (sugars l3 d14 l3, PS) under Tau had calcium oscillation score of 0 % of control

Entry CCAGCTAGTGGTGCCACCTG (sugars l3 d14 l3, PS) under Tau had calcium oscillation score of 1.84 % of control

----------
target: Tau; assay: rat primary cortical neurons, FLIPR, 25 uM ASO
Bases are written 5' to 3'; sugars and linkages follow in the same order, as letters with counts (s phosphorothioate, o phosphodiester; PS: all linkages phosphorothioate). The collection does not say whether C is 5-methylated. l = locked nucleic acid (LNA); d = 2'-deoxy (DNA)
result type: calcium oscillation score

Noted for ATCATTTTTTATTCATAACT (sugars l4 d12 l4, PS) : its calcium oscillation score reads 53.4 % of control

Noted for GGATGTTGCCTAATGA (sugars l3 d10 l3, PS) : its calcium oscillation score reads 0 % of control

Noted for CTCAAACTTAAATTTATT (sugars l4 d10 l4, PS) : its calcium oscillation score reads 82.4 % of control

Noted for GTGATATTGTCCAGGGACCC (sugars l3 d14 l3, PS) : its calcium oscillation score reads 0 % of control

Noted for CCTTTGTAATTCCTTCTC (sugars l3 d13 l2, PS) : its calcium oscillation score reads 53.4 % of control

Noted for TGGTTTGTAGACTATTTGCA (sugars l3 d14 l3, PS) : its calcium oscillation score reads 0 % of control

Noted for AATTTCAGAGCAAAGTGACC (sugars l3 d14 l3, PS) : its calcium oscillation score reads 2.38 % of control

Noted for CTTTATTTCCAAATTCACTT (sugars l4 d12 l4, PS) : its calcium oscillation score reads 0 % of control

Noted for ACCCCACATTTGCAAAC (sugars l3 d12 l2, PS) : its calcium oscillation score reads 63.5 % of control

Noted for ACTGGCGACTTGTACACGAT (sugars l3 d14 l3, PS) : its calcium oscillation score reads 0 % of control

Noted for ATCATAATCCTACCACCA (sugars l3 d13 l2, PS) : its calcium oscillation score reads 87.5 % of control

----------
molecular target: Tau; assay: rat primary cortical neurons, FLIPR, 25 uM ASO
Bases are written 5' to 3'; sugars and linkages follow in the same order, as letters with counts (s phosphorothioate, o phosphodiester; PS: all linkages phosphorothioate). The collection does not say whether C is 5-methylated. l = locked nucleic acid (LNA); d = 2'-deoxy (DNA)
result type: calcium oscillation score

Noted for CCAACTCAACATTACCCTT (sugars l2 d15 l2, PS) : its calcium oscillation score reads 66.3 % of control

Noted for CTTATTGCTTTCCAATTC (sugars l2 d12 l4, PS) : its calcium oscillation score reads 83.6 % of control

Noted for GTCCCCCAAAATATCTC (sugars l3 d12 l2, PS) : its calcium oscillation score reads 72.1 % of control

Noted for ATTTCCAAATTCACTTTTAC (sugars lllldddddddddldlddll, PS) : its calcium oscillation score reads 137 % of control

Noted for GTTTGTAGACTATT (sugars l3 d8 l3, PS) : its calcium oscillation score reads 125 % of control

Noted for GGCGACTTGTACACGATCTC (sugars l3 d14 l3, PS) : its calcium oscillation score reads 46.6 % of control

Noted for TTGGCTTTGGCGTT (sugars l3 d8 l3, PS) : its calcium oscillation score reads 96.2 % of control

Noted for TCAATTCTCATTTCAACCTT (sugars l2 d15 l3, PS) : its calcium oscillation score reads 70.7 % of control

Noted for AGAAATAAGTGGTAGT (sugars l2 d12 l2, PS) : its calcium oscillation score reads 86.9 % of control

Noted for CCAATTATCTTTAAATTCTA (sugars l4 d13 l3, PS) : its calcium oscillation score reads 70.7 % of control

Noted for TGATGGATGTTGCCTAATGA (sugars l3 d14 l3, PS) : its calcium oscillation score reads 0 % of control

Noted for CCATTCCCTCCAGAACCATC (sugars l3 d14 l3, PS) : its calcium oscillation score reads 36.3 % of control

Noted for ATGATGGATGTTGCCTAATG (sugars l3 d14 l3, PS) : its calcium oscillation score reads 0 % of control

Noted for TTAGCATCAGAGGTTT (sugars l3 d10 l3, PS) : its calcium oscillation score reads 23.3 % of control

Noted for ATTATTCTTTTTTTTTCCAC (sugars l3 d14 l3, PS) : its calcium oscillation score reads 15.2 % of control

Noted for GTTAGCCCTAAAGT (sugars l3 d8 l3, PS) : its calcium oscillation score reads 61 % of control

Noted for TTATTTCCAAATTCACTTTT (sugars llddlldddddddddldlll, PS) : its calcium oscillation score reads 123 % of control

Noted for CGCCAGGGACGTGGGTGATA (sugars l3 d14 l3, PS) : its calcium oscillation score reads 0 % of control

Noted for CTTCTAGTTATACAGTTGGC (sugars l3 d14 l3, PS) : its calcium oscillation score reads 40.5 % of control

Noted for AATCCCAGTTTCCCCCA (sugars l4 d11 l2, PS) : its calcium oscillation score reads 65.6 % of control

Noted for GGTTGGATCAGAGGGT (sugars l3 d10 l3, PS) : its calcium oscillation score reads 7.41 % of control

Noted for CCTCTGTCTTAACTTTT (sugars l3 d10 l4, PS) : its calcium oscillation score reads 97 % of control

Noted for ATCAGAGGTTTCAGAG (sugars l3 d10 l3, PS) : its calcium oscillation score reads 0 % of control

----------
biological target: Tau; assay: rat primary cortical neurons, FLIPR, 25 uM ASO
Bases are written 5' to 3'; sugars and linkages follow in the same order, as letters with counts (s phosphorothioate, o phosphodiester; PS: all linkages phosphorothioate). The collection does not say whether C is 5-methylated. l = locked nucleic acid (LNA); d = 2'-deoxy (DNA)
Kindly state calcium oscillation score for each of the entries shown.

Noted for TCCCTTAATTTCACC (sugars l3 d9 l3, PS) : its calcium oscillation score reads 80.5 % of control

Noted for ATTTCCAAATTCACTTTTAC (sugars l5 d11 l4, PS) : its calcium oscillation score reads 78.8 % of control

Noted for TCTTTATTAACACTCCACA (sugars l4 d13 l2, PS) : its calcium oscillation score reads 62.5 % of control

Noted for CAAGAGGCACAAGTC (sugars l3 d9 l3, PS) : its calcium oscillation score reads 112 % of control

Noted for AACTGGTTTGTAGACTATTT (sugars l3 d14 l3, PS) : its calcium oscillation score reads 0 % of control

Noted for CCAGGGACCCAATCTT (sugars l3 d10 l3, PS) : its calcium oscillation score reads 76 % of control

----------
Kindly state calcium oscillation score for each of the entries shown.
molecular target: Tau; experiment: rat primary cortical neurons, FLIPR, 25 uM ASO
Bases are written 5' to 3'; sugars and linkages follow in the same order, as letters with counts (s phosphorothioate, o phosphodiester; PS: all linkages phosphorothioate). The collection does not say whether C is 5-methylated. l = locked nucleic acid (LNA); d = 2'-deoxy (DNA)

Entry CGCCTTTAGTGATTACAGGC (sugars l3 d14 l3, PS) under Tau had calcium oscillation score of 20.2 % of control

Entry GGCTTTGGCGTTCTCG (sugars l3 d10 l3, PS) under Tau had calcium oscillation score of 1.35 % of control

Entry CTTTATTTCCAAATTCACT (sugars l5 d9 l2 d1 l2, PS) under Tau had calcium oscillation score of 108 % of control

Entry AGCTTGTGGGTTTCAATCTT (sugars l3 d14 l3, PS) under Tau had calcium oscillation score of 0 % of control

Entry CCTTTTTATTTCCTCCGC (sugars l3 d13 l2, PS) under Tau had calcium oscillation score of 40.1 % of control

Entry TAACCAACTTTCATCTAC (sugars l4 d10 l4, PS) under Tau had calcium oscillation score of 98.4 % of control
